# Tested on: HOP-62 NSCLC
# Experiment: NCI tumour cell line growth inhibition, 48 h
For each of the compounds below, state its TGI.

Given "COc1ccc(/C=C/C(=O)c2ccc(B(O)O)cc2)cc1O" , state its recorded TGI. > 57.2 µM

And "CCOC(=O)c1sc(Nc2cc(Cl)ccc2Cl)nc1C" ? > 100 µM

And "Cc1cc2c(=O)cc(-c3ccc(O)cc3)oc2c(C(=O)O)c1C" ? > 100 µM

And Cc1ccccc1C(C#N)/C(=N/NC(N)=S)C(=O)Nc1c(C)cccc1C (stereo not given) ? > 100 µM

And CC1OC(n2ccc3ccc([N+](=O)[O-])cc32)C(O)C(O)C1O (stereo not given) ? > 100 µM

And "O=C(O)c1cc(C(=O)C(=O)c2cc(C(=O)O)c(O)c3ccccc23)c2ccccc2c1O" ? > 100 µM

And CC(C)c1ccc2c(c1)CCC1C(C)(CN)CCCC21C (stereo not given) ? 3.14 µM

And "ClCc1nnc2n1-c1ccc(Cl)cc1SC2" ? 17.4 µM

And "NS(=O)(=O)c1ccc(N=Nc2c(O)[nH]c3cccc(CCc4ccncc4)c23)cc1" ? > 25 µM

And C=C1CC2(C)CCC(OC(=O)C3(C)OC3C)C(C)(OC(C)=O)C2CC1=C(C)C (stereo not given) ? > 100 µM

And "O=C1CCN(CCC(F)(F)C(F)(F)C(F)(F)C(F)(F)F)C(=S)N1" ? > 100 µM

And CC1(C)CCCC2(C)[C@@H]1CC[C@]13C[C@](C)(CC[C@@H]21)[C@@H]3CO (stereo not given in full) ? > 100 µM

And "CC(=O)OCc1cc(OC(C)=O)c2cc3c(OC(C)=O)cccc3c(OC(C)=O)c2c1" ? 39.6 µM

And "CNC(=S)N/N=C(\C)c1cc(OC)c(OC)cc1O" ? > 100 µM

And "COCN1C(=O)[C@@H]2CCCN2C(=O)c2ccc(Cl)cc21" ? > 100 µM

And "CC(=O)NS(=O)(=O)c1ccc(-n2nc(-c3ccccc3)cc2-c2cc(O)ccc2O)cc1" ? > 100 µM

And "COc1cc2c(OC)c3cc(C)oc(=O)c3c(O)c2c(O)c1-c1c(OC)cc2c(OC)c3cc(C)oc(=O)c3c(O)c2c1O" ? 30.1 µM

And "O=C(/C=C/c1cccnc1)c1ccccc1" ? 26.8 µM

And "COc1ccc(-c2cc(=O)c3cc4c(cc3[nH]2)OCO4)c(OC)c1" ? > 100 µM

And "CCOC(=O)C(=O)N=Nc1c(O)[nH]c2ccccc12" ? > 100 µM

###

# Test system: 786-0 renal
# Experiment: NCI tumour cell line growth inhibition, 48 h
For each of the molecules below, state its TGI.

Given Cc1ccc(OC2CC(n3cnc4c(=O)[nH]c(Br)nc43)OC2Oc2ccc(C)cc2)cc1 (stereo not drawn) , state its recorded TGI. 74.9 µM

And "Nc1nc(N)c2cc(Sc3ccc(Cl)cc3)ccc2n1" ? 2.04 µM

And "COc1cc(C)cc(C(=O)OCc2ccccc2)c1C1=C(Cl)C(=O)C(Cl)=CC1=O" ? > 10 µM

And "COC(=O)Nc1nc2ccc(C(=O)C3CC3)cc2[nH]1" ? 30.5 µM

And "COc1ccc(C(=O)/C=C/c2ccc(OCC(=O)N3CCN(c4ccccc4)CC3)cc2)cc1OC" ? > 10 µM

And CNC(=O)N(CCCC(NC(C)=O)C(=O)NCc1ccccc1)Cc1ccccc1 (stereo not drawn) ? > 100 µM

And "Cc1cc2c(=O)cc(-c3ccc(Cl)c(Cl)c3)oc2c(C(=O)O)c1C" ? > 100 µM

And "Cc1cc2c(cc1C)[n+](=O)c(C(=O)CC(=O)C(=O)Nc1ccccc1C)c(C)n2[O-]" ? > 100 µM

###

# Test system: MOLT-4 leukemia
# Experiment: NCI tumour cell line growth inhibition, 48 h
Attribute Measured: TGI

Reported TGI for MOLT-4 leukemia, given "CN1C(=O)CNS1(=O)=O" ? > 100 µM

And "COc1ccc(/C=C2\N=C(N3CCOCC3)NC2=O)cc1" ? > 100 µM

And "CC1(C)CC(=O)c2c(nc3c(ccc4ccccc43)c2-c2ccc(NC(=O)CCCCCCCCC(=O)Nc3ccc(-c4c5c(nc6c4ccc4ccccc46)CC(C)(C)CC5=O)cc3)cc2)C1" ? > 100 µM

And "CNC(=S)N/N=C(\C)c1cc(OC)c(OC)cc1O" ? > 100 µM

And "NC(=S)Nc1c(S(N)(=O)=O)cc(S(N)(=O)=O)c(Cl)c1Cl" ? > 100 µM

And N#CCC(=O)N/N=C(/C(=O)Nc1ccccc1)C1C(=O)N(c2ccccc2)N=C1N (centres undefined) ? > 100 µM

And "COc1ccc2cc(NC(=O)Nn3cnnc3)ccc2c1" ? > 100 µM

And "COC(=O)c1oc([N+](=O)[O-])c(-c2ccccc2)c1-c1ccccc1" ? > 100 µM

And "CC(=O)N[C@@H](Cc1ccc(OP(=O)(O)O)cc1)C(=O)N[C@H]1CCC(=O)N2CCC[C@@H](C(=O)NCc3cccc4ccccc34)N2C1=O" ? > 25 µM

And "CO[C@@H]1C[C@H]2[C@@H]3CC[C@H]([C@@H](C)COC(C)=O)[C@@]3(C)CC[C@@H]2[C@@]2(C)CC[C@H]3C[C@]312" ? 32.3 µM

And CC(=O)OC12c3ccccc3C(c3ccccc31)C1C(=O)N(Nc3ccccc3)C(=O)C12 (centres undefined) ? > 100 µM

And CCOC(=O)C(CC(C)C)NC(=O)C(N)Cc1ccc(N(CCCl)CCCl)cc1 (centres undefined) ? 1.68 µM

And "Cc1ccc(C)c(N2C(=O)C(=O)C(c3nc4ccccc4s3)C(=O)C2=O)c1" ? > 100 µM

And "COc1cc(S(=O)(=O)Nc2ccc(-c3csc(/N=C\c4ccccc4O)n3)cc2)ccc1Cl" ? 70.3 µM

And "C/C(CC(O)(C(F)(F)Cl)C(F)(F)Cl)=N\Nc1ccccc1" ? 84.2 µM

And "N#C/C(=C\c1ccc([N+](=O)[O-])cc1)n1nnc2cc(F)c(F)cc21" ? 10.5 µM

And "Nc1ccc(N=Nc2ccc(-c3ccc(N=Nc4c(S(=O)(=O)O)cc5cc(S(=O)(=O)O)c(N=Nc6ccc([N+](=O)[O-])cc6)c(N)c5c4O)cc3)cc2)c2cc(S(=O)(=O)O)ccc12" ? > 100 µM

And "COCN1C(=O)[C@@H]2CCCN2C(=O)c2ccc(Cl)cc21" ? > 100 µM

And "c1ccc2c(CNCCCN3CCN(CCCNCc4cccc5ccccc45)CC3)cccc2c1" ? 2.92 µM

And "CNC(=O)Nn1c(SC)nc2ccccc21" ? > 100 µM

And "O=C1NC(=N[C@@H]2C[C@H]2c2ccccc2)S/C1=C\c1ccc2ncccc2c1" ? 21.8 µM

And "Cc1ccc(C)n1-n1c(Cc2ccc(Cl)cc2)n[nH]c1=O" ? > 100 µM

And "N[C@@H]1c2c(Br)sc(Br)c2C(=O)[C@H]1Br" ? > 46.1 µM

And COc1ncnn2ccc(-c3cnc4nc(C)n(Cc5nnc(C(C)F)o5)c4c3)c12 (centres undefined) ? > 20.8 µM

###

# Tested on: MOLT-4 leukemia
# Experiment: NCI tumour cell line growth inhibition, 48 h
Attribute Measured: TGI

Reported TGI for MOLT-4 leukemia, given "CN(CCNc1ccc(C(=N)N)cc1)c1ccc(C(=N)N)cc1" ? > 100 µM

And COc1ccc(-c2c(C(C)=O)c(C)n(C3OC(COC(C)=O)C(OC(C)=O)C(OC(C)=O)C3OC(C)=O)c(=S)c2C#N)cc1 (stereo not drawn) ? > 100 µM

And "O=c1cc(CN2CCCCC2)[nH]c2c1ccc1nc(CN3CCCCC3)cc(=O)n12" ? > 100 µM

And "CCOC(=O)c1sc(Nc2cc(Cl)ccc2Cl)nc1C" ? > 100 µM

And "CCOC(=O)C(=O)N=Nc1c(O)[nH]c2ccccc12" ? > 100 µM

And "N#Cc1nc(/C=C/c2cccs2)oc1N" ? > 100 µM

And "CC1(C)OC[C@@H]([C@H](C=O)OCc2ccccc2)O1" ? > 100 µM

And "O=C(CC(O)(C(F)(F)Cl)C(F)(F)Cl)CC(O)(C(F)(F)Cl)C(F)(F)Cl" ? > 10 µM

###

# System: SN12C renal
# Experiment: NCI tumour cell line growth inhibition, 48 h
Attribute Measured: TGI

Given "CC(=O)c1cc2sc3ccccc3c2[nH]1" , state its recorded TGI. > 100 µM

And "CN1C(=O)CNS1(=O)=O" ? > 100 µM

And "CC1(C)OC[C@@H]([C@H](C=O)OCc2ccccc2)O1" ? > 100 µM

And Cc1ccc(OC2CC(n3cnc4c(=O)[nH]c(Br)nc43)OC2Oc2ccc(C)cc2)cc1 (configuration not stated) ? 56.5 µM

And CCN1CCC(O)(/C=C/c2cccc(C)c2)C(C(=O)/C=C/c2cccc(C)c2)C1 (configuration not stated) ? 7.04 µM

And "O=C1/C(=C\c2ccc(Cl)cc2)CN(C(=O)c2ccccc2)C/C1=C\c1ccc(Cl)cc1" ? 5.4 µM

And "COc1ccc(C(=O)O[C@@H]2CCN3CC[C@H](C)[C@H]23)cc1" ? > 100 µM

And "O=C(CC(O)(C(F)(F)Cl)C(F)(F)Cl)CC(O)(C(F)(F)Cl)C(F)(F)Cl" ? > 10 µM

And "O=C1CCN(CCC(F)(F)C(F)(F)C(F)(F)C(F)(F)F)C(=S)N1" ? > 100 µM

And "CC(=O)NS(=O)(=O)c1ccc(-n2nc(-c3ccccc3)cc2-c2cc(O)ccc2O)cc1" ? > 100 µM

And "COc1cc2c(OC)c3cc(C)oc(=O)c3c(O)c2c(O)c1-c1c(OC)cc2c(OC)c3cc(C)oc(=O)c3c(O)c2c1O" ? 45.2 µM

And "CN(CCNc1ccc(C(=N)N)cc1)c1ccc(C(=N)N)cc1" ? > 100 µM
